target: HLA-A*03:01; test: IEDB peptide-MHC binding, purified MHC/direct/fluorescence; filed as Kd, often an IC50 or EC50 that approximates it; bounds were set here for any values at or beyond the usual limits of such assays; details: source organism: Mammarenavirus juninense
pKd: −log10 of the molar value.
MEASUREMENT KIND: pKd

Quick one: pKd of DLKLVDVKL ?
≤ 4.70

---

target: HLA-A*02:19; test: IEDB peptide-MHC binding, purified MHC/competitive/fluorescence; filed as Kd, often an IC50 or EC50 that approximates it; bounds were set here for any values at or beyond the usual limits of such assays; conditions: source organism: Vibrio antiquarius
pKd: −log10 of the molar value.
MEASUREMENT KIND: pKd

Form: Entry = FDLFGITLY | System = HLA-A*02:19 | pKd = ____
≤ 4.70

---

molecular target: HLA-A*02:01; assay: IEDB peptide-MHC binding, purified MHC/competitive/fluorescence; filed as Kd, often an IC50 or EC50 that approximates it; bounds were set here for any values at or beyond the usual limits of such assays; conditions: source organism: Reston ebolavirus - Reston (1989)
pKd: −log10 of the molar value.
MEASUREMENT KIND: pKd

Quick one: pKd of FSDLCNFLI ?
≤ 4.70

---

molecular target: HLA-B*44:02; assay: IEDB peptide-MHC binding, purified MHC/competitive/radioactivity; filed as Kd, often an IC50 or EC50 that approximates it; bounds were set here for any values at or beyond the usual limits of such assays; settings: source organism: Lymphocytic choriomeningitis virus (strain Armstrong)
MEASUREMENT KIND: pKd
Recall that pKd is obtained by taking minus log10 of the concentration measured in molar.

Quick one: pKd of AEALGPFQS ?
5.88

---

molecular target: HLA-B*58:01; experiment: IEDB peptide-MHC binding, purified MHC/direct/fluorescence; filed as Kd, often an IC50 or EC50 that approximates it; bounds were set here for any values at or beyond the usual limits of such assays; settings: source organism: Orthohantavirus andesense
MEASUREMENT KIND: Kd

Quick one: Kd of VMGVIGFGF ?
2190 nM

---

biological target: HLA-A*30:02; assay: IEDB peptide-MHC binding, purified MHC/competitive/radioactivity; filed as Kd, often an IC50 or EC50 that approximates it; bounds were set here for any values at or beyond the usual limits of such assays; settings: source organism: Dengue virus 2 16681-PDK53
MEASUREMENT KIND: Kd (nM)
Return type: number; implicit unit nM.

Quick one: Kd of KMEALQRKY ?
61.4

---

Could you please report measured Kd for the items listed next?
target: HLA-A*69:01; assay: IEDB peptide-MHC binding, purified MHC/direct/fluorescence; filed as Kd, often an IC50 or EC50 that approximates it; bounds were set here for any values at or beyond the usual limits of such assays; conditions: source organism: Mycobacterium tuberculosis
Return type: number; implicit unit nM.

Quick one: Kd of LLYDGSFAV ?
4.3

Thanks! And LPAEVRAAF ?
1310

Thanks! And AIYDTMQYV ?
6

---

molecular target: HLA-B*44:02; test: IEDB peptide-MHC binding, purified MHC/direct/fluorescence; filed as Kd, often an IC50 or EC50 that approximates it; bounds were set here for any values at or beyond the usual limits of such assays; details: source organism: Mycobacterium tuberculosis variant bovis BCG str. Pasteur 1173P2
MEASUREMENT KIND: Kd

Quick one: Kd of IIRVTSELL ?
≥ 20 µM

---

molecular target: HLA-A*11:01; assay: IEDB peptide-MHC binding, purified MHC/direct/fluorescence; filed as Kd, often an IC50 or EC50 that approximates it; bounds were set here for any values at or beyond the usual limits of such assays; details: source organism: Vibrio parahaemolyticus
MEASUREMENT KIND: pKd
Recall that pKd is obtained by taking minus log10 of the concentration measured in molar.

Quick one: pKd of IRSCWRYRK ?
5.67

---

target: HLA-B*07:02; assay: IEDB peptide-MHC binding, purified MHC/competitive/radioactivity; filed as Kd, often an IC50 or EC50 that approximates it; bounds were set here for any values at or beyond the usual limits of such assays; conditions: source organism: SARS coronavirus Tor2
MEASUREMENT KIND: pKd
Recall that pKd is obtained by taking minus log10 of the concentration measured in molar.

Quick one: pKd of IPTNFSISI ?
7.19

Thanks! And APAICHEGKA ?
5.70

---

target: HLA-A*01:01; experiment: IEDB peptide-MHC binding, purified MHC/competitive/fluorescence; filed as Kd, often an IC50 or EC50 that approximates it; bounds were set here for any values at or beyond the usual limits of such assays; conditions: source organism: Bacillus anthracis str. A0488
pKd: −log10 of the molar value.
MEASUREMENT KIND: pKd

Quick one: pKd of WDAYIPHYV ?
≤ 5.30

---

target: HLA-B*44:03; assay: IEDB peptide-MHC binding, purified MHC/competitive/radioactivity; filed as Kd, often an IC50 or EC50 that approximates it; bounds were set here for any values at or beyond the usual limits of such assays; conditions: source organism: Dengue virus 3 Martinique/1243/1999
MEASUREMENT KIND: Kd
# output: number + unit

Quick one: Kd of ADMGCVINW ?
110 nM

---

target: HLA-A*30:02; test: IEDB peptide-MHC binding, purified MHC/competitive/radioactivity; filed as Kd, often an IC50 or EC50 that approximates it; bounds were set here for any values at or beyond the usual limits of such assays; details: source organism: SARS coronavirus Tor2
MEASUREMENT KIND: pKd
Recall that pKd is obtained by taking minus log10 of the concentration measured in molar.

Quick one: pKd of AFLPFTLGI ?
5.09

Thanks! And LYIIKLVFL ?
4.87

Thanks! And LKEPCPSGTY ?
7.16

Thanks! And NKDGFLYVY ?
5.55

Thanks! And FTERSDKSY ?
7.27

Thanks! And LTKHPNQEY ?
6.82

Thanks! And VYDPLQPEL ?
6.52

Thanks! And PFVVSTGYHF ?
4.93

Thanks! And PVDEYITTY ?
5.83

---

target: HLA-B*57:01; experiment: IEDB peptide-MHC binding, purified MHC/direct/fluorescence; filed as Kd, often an IC50 or EC50 that approximates it; bounds were set here for any values at or beyond the usual limits of such assays; settings: source organism: Reston ebolavirus - Reston
MEASUREMENT KIND: Kd

Quick one: Kd of SKLRALLTL ?
≥ 20 µM

---

target: HLA-B*58:01; assay: IEDB peptide-MHC binding, purified MHC/direct/fluorescence; filed as Kd, often an IC50 or EC50 that approximates it; bounds were set here for any values at or beyond the usual limits of such assays; conditions: source organism: Influenza A virus (A/whooper swan/Mongolia/6/05(H5N1))
MEASUREMENT KIND: Kd

Quick one: Kd of SSDDFALIV ?
≥ 20 µM

---

target: HLA-A*11:01; experiment: IEDB peptide-MHC binding, purified MHC/competitive/radioactivity; filed as Kd, often an IC50 or EC50 that approximates it; bounds were set here for any values at or beyond the usual limits of such assays; details: source organism: Vaccinia virus WR
Could you please report measured Kd for the items listed next?
Return type: number; implicit unit nM.

Quick one: Kd of MINYYNEMSR ?
53.3

Thanks! And FMLIFNVKSK ?
3430

Thanks! And TLDDLAIKQY ?
2920

Thanks! And ELAELLEMK ?
1270

Thanks! And VSLVKKNKK ?
2280

Thanks! And NTPVSMTYLY ?
1400

Thanks! And TSETMYLTMK ?
111

Thanks! And ALYYVHSLLY ?
9.2

Thanks! And LIVSLCPTKK ?
56.9

Thanks! And VTFRERYSY ?
4.5

Thanks! And EVVMAYVGIK ?
97.7

Thanks! And TSEKYSKGYK ?
1050

Thanks! And SSESLVYGIR ?
476

Thanks! And IILFILFFAY ?
11100

---

biological target: HLA-A*68:02; test: IEDB peptide-MHC binding, purified MHC/direct/fluorescence; filed as Kd, often an IC50 or EC50 that approximates it; bounds were set here for any values at or beyond the usual limits of such assays; settings: source organism: Marburg virus - Musoke, Kenya, 1980
MEASUREMENT KIND: Kd

Quick one: Kd of IHLDKGGQF ?
≥ 20 µM

---

target: HLA-B*40:01; assay: IEDB peptide-MHC binding, purified MHC/competitive/radioactivity; filed as Kd, often an IC50 or EC50 that approximates it; bounds were set here for any values at or beyond the usual limits of such assays; conditions: source organism: Dengue virus 4 Dominica/814669/1981
MEASUREMENT KIND: Kd (nM)
Return type: number; implicit unit nM.

Quick one: Kd of EEIDKKDGDL ?
1890
